Give measured shrunken log2 fold change for each item. Keep answers brief.
# System: Escherichia coli TOP10;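 note: peptides expressed intracellularly from a pBAD plasmid library in pooled LB shake-flask culture, induced with 0.3% L-arabinose, DNA abundance read by NGS, three biological replicates, DESeq2 with apeglm shrinkage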
# procedureDetails: shrunken log2 fold change of peptide-encoding DNA abundance (4.5 h post-induction vs induction); higher = less antimicrobial activity (less host growth inhibition)
# settings: time post-induction: 4.5 h; library: site-saturation at positions 5, 18, 19, 20
Give bare numbers.

// worked examples, shrunken log2 fold change included
> print(dat)
              sequencetext  reading
1  RRIRDRPPRLPRPRPRPPYEPRP  -0.0831
2  RRIRARPPRLPRPRPRPGCFPRP     0.96
3  RRIRRRPPRLPRPRPRPSWNPRP   -0.157
4  RRIRTRPPRLPRPRPRPSWMPRP   -0.466
5  RRIRYRPPRLPRPRPRPPATPRP    0.407

For the 5 sequences below, give their shrunken log2 fold change values.
1. RRIRPRPPRLPRPRPRPDSEPRP
2. RRIRVRPPRLPRPRPRPMNIPRP
3. RRIRSRPPRLPRPRPRPQMVPRP
4. RRIRRRPPRLPRPRPRPWDQPRP
5. RRIRERPPRLPRPRPRPKVFPRP

Reply text:
1. -0.208
2. -0.604
3. -0.102
4. 0.0792
5. 0.0354

For the 2 sequences below, give their shrunken log2 fold change values.
1. RRIRPRPPRLPRPRPRPIVWPRP
2. RRIRHRPPRLPRPRPRPGPLPRP

Reply text:
1: 0.0606; 2: 0.0825

For the 8 sequences below, give their shrunken log2 fold change values.
1. RRIRFRPPRLPRPRPRPASGPRP
2. RRIRARPPRLPRPRPRPKRQPRP
3. RRIRPRPPRLPRPRPRPEEQPRP
4. RRIRHRPPRLPRPRPRPMCLPRP
5. RRIRCRPPRLPRPRPRPRHTPRP
6. RRIRHRPPRLPRPRPRPLIVPRP
7. RRIRDRPPRLPRPRPRPSNLPRP
8. RRIRQRPPRLPRPRPRPHCAPRP

Reply text:
0.206
0.0749
0.00406
-0.0755
-0.0438
-0.314
-0.0257
0.0396

For the 5 sequences below, give their shrunken log2 fold change values.
1. RRIRRRPPRLPRPRPRPQCNPRP
2. RRIRSRPPRLPRPRPRPNRTPRP
3. RRIRYRPPRLPRPRPRPSWAPRP
4. RRIRRRPPRLPRPRPRPDCNPRP
5. RRIRIRPPRLPRPRPRPTEKPRP

Reply text:
[0.0615, -0.0602, -0.21, 0.311, 0.0176]

For the 5 sequences below, give their shrunken log2 fold change values.
1. RRIRKRPPRLPRPRPRPPYKPRP
2. RRIRERPPRLPRPRPRPFRCPRP
3. RRIRFRPPRLPRPRPRPPYPPRP
4. RRIRCRPPRLPRPRPRPGNAPRP
5. RRIRGRPPRLPRPRPRPVTTPRP

Reply text:
-0.142
0.00668
-0.0265
0.185
1.21

For the 2 sequences below, give their shrunken log2 fold change values.
1. RRIRIRPPRLPRPRPRPTWPPRP
2. RRIRCRPPRLPRPRPRPEPIPRP

Reply text:
[0.368, -0.0787]
